# glycan array binding signal (z-score) annotations
- TARGET SYSTEM: Gal(b1-3)GlcNAc
- ASSAY NOTES: glycan array binding signal (z-score within array); higher = stronger binding
- COND: glycan notation: IUPAC condensed, linker removed
Shown is part of a subset that was picked to be rich in the strongest signals.
Write the number on its own, no unit after it.

In the examples that follow, each entry is paired with its recorded glycan array binding signal (z-score).
BINDER | MEASUREMENT KIND | REPORTED
AAL (Agrocybe aegerita), Q6WY08 (protein) MQGVNIYNISAGTSVDLAAPVTTGDIVTFFSSALNLNAGAGNPNNTTLNLFAENGAYLLHIAFRLQENVIIFNSRQPDGPWLVEQRVSDVANQFAGIDGKAMVTVFDHGDKYQVVINEKTVIQYTKQISGLTLSLSYNATEETSIFSTVVEAVTYTGLALEHHHHHH | glycan array binding signal (z-score) | -0.146
Dectin-1 (Mus musculus), Q6QLQ4 (protein) GHNSGRNPEEKDNFLSRNKENHKPTESSLDEKVAPSKASQTTGGFSQPCLPNWIMHGKSCYLFSFSGNSWYGSKRHCSQLGAHLLKIDNSKEFEFIESQTSSHRINAFWIGLSRNQSEGPWFWEDGSAFFPNSFQVRNTAPQESLLHNCVWIHGSEVYNQICNTSSYSICEKEL | glycan array binding signal (z-score) | -0.088

Ask | For PpFlo3 (Pichia pastoris) (protein) MGSSHHHHHHSSGLVPRGSHMQESGNGTTSDTAYACDIGATPFDGFNATIYQYQASDDNSIQDPVFMSTGYLQRNQLHSTTGVTNPGFNIFTAGVATTTLYGIPNVNYQNMLLELKGYFRADASGNYGLSLRNIDDSAILFFGRETAFECCNENLIPLDEAPTDYSLFTIKEGEASTNPDSYTYTQYLEAGRYYPVRTFFANIRTRAVFNFTMTLPDGSELTDFQNYIFQFGALNQ , what is its reported glycan array binding signal (z-score)?
Reply | -0.201

All figures here come from the supplement of paper PMC8728848.
